Target: GST P1-1 (Homo sapiens, UniProt P09211)
Construct: purchased Sigma-Aldrich
Sequence (P09211 2-210 limits assumed): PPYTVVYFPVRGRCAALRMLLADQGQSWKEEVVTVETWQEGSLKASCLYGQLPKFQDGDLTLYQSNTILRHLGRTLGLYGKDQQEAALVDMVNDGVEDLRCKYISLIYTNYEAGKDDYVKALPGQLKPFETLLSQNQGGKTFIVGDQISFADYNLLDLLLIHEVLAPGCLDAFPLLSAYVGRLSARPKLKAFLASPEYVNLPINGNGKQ
Test: Determination of inhibitor binding mechanism (kinetic GST P1-1 activity assay)
Assay type: biochemical
Settings: from Km and Vmax versus reaction without inhibitor
MEASURED_PROPERTY: Inhibition mechanism

• O=C1C(=Cc2cccnc2)C(=O)c2ccccc21 [PRT 4165] = Non-competitive
• CCc1ccc(/C=C2/SC(=S)NC2=O)cc1 [10058-F4] = Non-competitive
• C[C@H]1COC2=C1C(=O)C(=O)c1c2ccc2c1CCCC2(C)C [Cryptotanshinone 97.0%, Cryptotanshinone] = Non-competitive

---

Biological target: GST P1-1 (Homo sapiens, UniProt P09211)
Construct: purchased Sigma-Aldrich
Experiment: Determination of IC50 for GST P1-1 enzyme (dose-response / reconfirmation assay)
Assay type: biochemical
Conditions: reconfirmation assay
Method: Each drug compound was added to the respective well at a volume of 80 nL of 10 mM stock solution in DMSO, yielding a final compound concentration of 10 μM and a final DMSO concentration of 0.1%. […] The plates were incubated for 2 h in the dark at 25°C and then the absorbance was of each well recorded on a BioTek Synergy NEO HTS multimode plate reader (Agilent®) at a wavelength of 340 nm. […]
MEASURED_PROPERTY: Hill Slope (dose-response curve)

• O=C1CC(=O)c2c(Cl)c(Cl)c(Cl)c(Cl)c21 = 1.16
• O=C(O)c1c(Sc2ccccc2)c2cc(Cl)ccc2n1Cc1ccc(Cl)cc1 = 1.7
• O=C(O)c1cc(N2N=C(C(F)(F)F)/C(=C/c3ccc(-c4ccccc4)o3)C2=O)ccc1Cl = 1.4
• O=C(O)c1ccc2cc(-c3ccc(O)c(C45CC6CC(CC(C6)C4)C5)c3)ccc2c1 = 11.6
• O=C(O)c1ccc(S(=O)(=O)N(Cc2ccc(OC(F)(F)F)cc2)c2ncc(C(F)(F)F)cc2Cl)cc1 = 1.6
• Cc1cc(O)c2c(=O)c3c(O)cc(O)c4c5c(O)cc(O)c6c(=O)c7c(O)cc(C)c8c1c2c(c34)c(c78)c65 = 11.6
• Cl.O=C(O)Cc1cccc(OCCCN(Cc2cccc(C(F)(F)F)c2Cl)CC(c2ccccc2)c2ccccc2)c1 [GW3965 (hydrochloride)] = 2.48
• C=CC(=O)c1ccc2ccccc2c1 = 1.3

---

Test system: L929 cells
Assay: MTT cytotoxicity assay, L929
Assay type: cell-based, mouse
Conditions: MTT, 72 h incubation; read-out: IC50 (average ± standard deviation) L929
Threshold check on IC50: strictly below 20 µM is rule met; on or above 20 µM is rule not met.

* O=C(O)c1ccccc1Nc1ccc(CCc2ccc(Cl)c(Cl)c2)cc1 [PD-118057] | rule not met
* N#Cc1c(-c2ccccc2)cc(-c2cc(Br)ccc2O)[nH]c1=O [TCS PIM-1 1] | rule not met
* O=C1NC(=O)/C(=C/c2ccc(-c3ccc(F)cc3O)o2)S1 [AS252424] | rule not met
* O=C1CC(=O)c2c(Cl)c(Cl)c(Cl)c(Cl)c21 [TCID] | rule not met
* O=C(O)c1ccc(S(=O)(=O)N(Cc2ccc(OC(F)(F)F)cc2)c2ncc(C(F)(F)F)cc2Cl)cc1 [RQ-00203078] | rule not met
* O=C(O)c1ccc2cc(-c3ccc(O)c(C45CC6CC(CC(C6)C4)C5)c3)ccc2c1 [CD437] | rule met
* Cl.O=C(O)Cc1cccc(OCCCN(Cc2cccc(C(F)(F)F)c2Cl)CC(c2ccccc2)c2ccccc2)c1 [GW3965 (hydrochloride)] | rule not met
* O=C(O)c1cc(N2N=C(C(F)(F)F)/C(=C/c3ccc(-c4ccccc4)o3)C2=O)ccc1Cl [en460] | rule met
